Listed here: items and their measured fraction unbound.
procedure_summary: Plasma protein binding in human
Assay type: ADME, cell-free
details: read-out: PPB (converted)
Just the number.

| smiles_representation | test_readout | reading |
| --- | --- | --- |
| CC[C@@H]1C[C@@H]2[C@@H](CC[C@@]3(S(=O)(=O)c4ccc(C(F)(F)F)cc4)c4c(F)ccc(F)c4OC[C@@H]23)NS1(=O)=O | fraction unbound | 0.019 |

Turning now to a further molecule:
# input molecule: C[C@@H]1C[C@@H]2[C@@H](CC[C@@]3(S(=O)(=O)c4ccc(C(F)(F)F)cc4)c4c(F)ccc(F)c4OC[C@@H]23)NS1(=O)=O ; wanted: its fraction unbound 0.027

###

procedure_summary: Inhibition of gamma secretase
The following molecules are shown together with reported IC50 values.
Write down the numeric answer in nM and omit the unit.

Dear colleague, I am looking for the recorded IC50 of the following molecule: CC[C@@H]1C[C@@H]2[C@@H](CC[C@@]3(S(=O)(=O)c4ccc(C(F)(F)F)cc4)c4c(F)ccc(F)c4OC[C@@H]23)NS1(=O)=O 1.9

Consider the molecule O=S1(=O)CC[C@@H]2[C@@H](CC[C@@]3(S(=O)(=O)c4ccc(C(F)(F)F)cc4)c4c(F)ccc(F)c4OC[C@@H]23)N1 and give its measured IC50. 30

Would you mind telling me what IC50 value was observed for C/C=C/CC1C[C@@H]2[C@@H](CC[C@@]3(S(=O)(=O)c4ccc(C(F)(F)F)cc4)c4c(F)ccc(F)c4OC[C@@H]23)NS1(=O)=O (stereo partly specified) ? 14.6

For C=CCC1C[C@@H]2[C@@H](CC[C@@]3(S(=O)(=O)c4ccc(C(F)(F)F)cc4)c4c(F)ccc(F)c4OC[C@@H]23)NS1(=O)=O (stereo partly specified) , what is its reported IC50? 7.7

Look up IC50: COCC1C[C@@H]2[C@@H](CC[C@@]3(S(=O)(=O)c4ccc(C(F)(F)F)cc4)c4c(F)ccc(F)c4OC[C@@H]23)NS1(=O)=O (stereo partly specified) 9

Item under review: O=C(O)CC1C[C@@H]2[C@@H](CC[C@@]3(S(=O)(=O)c4ccc(C(F)(F)F)cc4)c4c(F)ccc(F)c4OC[C@@H]23)NS1(=O)=O (stereo partly specified) . Reported IC50? 48.3

###

System: Mus musculus
procedure_summary: Reduction in amyloid beta 40 level in non-transgenic mouse brain at 10 mg/kg, po
Format: ADME, organism-based
Parameters: dose 10 mg/kg, route oral; scale not given: the % may be the effect or the level left
details: in vivo
test_readout: Activity (%)
// return numeric value only (unit: %, not printed)

| smiles_representation | target_or_system | Activity [%] |
| --- | --- | --- |
| CC[C@@H]1C[C@@H]2[C@@H](CC[C@@]3(S(=O)(=O)c4ccc(C(F)(F)F)cc4)c4c(F)ccc(F)c4OC[C@@H]23)NS1(=O)=O | Mus musculus | 42 |

# context switch: different compound, same Activity
Quick check: Activity of C[C@@H]1C[C@@H]2[C@@H](CC[C@@]3(S(=O)(=O)c4ccc(C(F)(F)F)cc4)c4c(F)ccc(F)c4OC[C@@H]23)NS1(=O)=O ? 57

###

target_or_system: hERG (KCNH2) (Homo sapiens, UniProt Q12809)
Sequence (Q12809 whole entry): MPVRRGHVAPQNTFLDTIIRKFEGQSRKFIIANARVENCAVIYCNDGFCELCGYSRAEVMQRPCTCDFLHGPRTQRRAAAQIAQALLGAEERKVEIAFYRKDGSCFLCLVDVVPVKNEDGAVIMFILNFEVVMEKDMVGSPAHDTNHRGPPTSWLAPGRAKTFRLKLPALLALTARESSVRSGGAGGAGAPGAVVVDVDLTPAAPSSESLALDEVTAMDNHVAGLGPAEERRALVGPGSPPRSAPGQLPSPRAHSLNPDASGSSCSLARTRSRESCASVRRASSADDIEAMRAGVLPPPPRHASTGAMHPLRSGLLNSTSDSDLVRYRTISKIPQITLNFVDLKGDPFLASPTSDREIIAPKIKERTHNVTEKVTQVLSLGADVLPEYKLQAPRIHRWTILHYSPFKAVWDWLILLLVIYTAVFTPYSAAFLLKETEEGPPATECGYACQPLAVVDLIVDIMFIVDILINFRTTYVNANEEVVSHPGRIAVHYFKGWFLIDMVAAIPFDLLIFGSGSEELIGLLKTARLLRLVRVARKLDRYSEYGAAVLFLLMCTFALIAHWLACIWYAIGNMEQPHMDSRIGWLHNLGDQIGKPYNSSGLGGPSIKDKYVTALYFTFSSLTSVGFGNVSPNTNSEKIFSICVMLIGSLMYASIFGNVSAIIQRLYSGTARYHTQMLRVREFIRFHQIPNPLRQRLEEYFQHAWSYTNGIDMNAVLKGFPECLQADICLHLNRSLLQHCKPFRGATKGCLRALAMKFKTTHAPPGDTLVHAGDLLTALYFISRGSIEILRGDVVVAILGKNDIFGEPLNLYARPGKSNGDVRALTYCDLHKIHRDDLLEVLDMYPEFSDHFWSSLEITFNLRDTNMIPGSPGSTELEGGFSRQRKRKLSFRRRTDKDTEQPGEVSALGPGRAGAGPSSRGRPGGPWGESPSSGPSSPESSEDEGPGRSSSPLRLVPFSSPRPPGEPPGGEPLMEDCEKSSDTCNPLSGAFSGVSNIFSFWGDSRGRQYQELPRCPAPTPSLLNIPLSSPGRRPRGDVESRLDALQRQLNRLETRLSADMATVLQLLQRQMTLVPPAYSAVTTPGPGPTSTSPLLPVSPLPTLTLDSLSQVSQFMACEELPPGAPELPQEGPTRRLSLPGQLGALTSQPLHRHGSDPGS
procedure_summary: Inhibition of human ERG assessed as rubidium efflux at 5 ug/ml
test_readout: inhibition at 5 ug/ml (%)
API: value field is a number in %; no unit string.

| smiles_representation | test_readout | reading |
| --- | --- | --- |
| CC[C@@H]1C[C@@H]2[C@@H](CC[C@@]3(S(=O)(=O)c4ccc(C(F)(F)F)cc4)c4c(F)ccc(F)c4OC[C@@H]23)NS1(=O)=O | inhibition at 5 ug/ml | 10 |

# next compound below
Reported inhibition at 5 ug/ml for hERG (KCNH2) (Homo sapiens, UniProt Q12809), given C[C@@H]1C[C@@H]2[C@@H](CC[C@@]3(S(=O)(=O)c4ccc(C(F)(F)F)cc4)c4c(F)ccc(F)c4OC[C@@H]23)NS1(=O)=O ? 4

###

As shown below, each of these molecules has a reported pIC50 value.
procedure_summary: Inhibition of gamma secretase
Note on units: pIC50 is unitless, being -log10 of a concentration expressed in mol/L.

Example results:
| molecule | reading |
| --- | --- |
| O=C(O)CCC1C[C@@H]2[C@@H](CC[C@@]3(S(=O)(=O)c4ccc(C(F)(F)F)cc4)c4c(F)ccc(F)c4OC[C@@H]23)NS1(=O)=O (some centres undefined) | 7.77 |
| O=S1(=O)N[C@@H]2CC[C@@]3(S(=O)(=O)c4ccc(C(F)(F)F)cc4)c4c(F)ccc(F)c4OC[C@H]3[C@@H]2CC1C/C=C/c1ccccc1 (some centres undefined) | 7.22 |
| O=S1(=O)N[C@@H]2CC[C@@]3(S(=O)(=O)c4ccc(C(F)(F)F)cc4)c4c(F)ccc(F)c4OC[C@H]3[C@@H]2CC1CCCO (some centres undefined) | 8.02 |

Would you kindly look at the next entry?
Which value of pIC50 has been reported for O=S1(=O)N[C@@H]2CC[C@@]3(S(=O)(=O)c4ccc(C(F)(F)F)cc4)c4c(F)ccc(F)c4OC[C@H]3[C@@H]2CC1CCN1CCCC1 (some centres undefined) in the records? 7.34

###

procedure_summary: Inhibition of gamma-secretase-mediated cleavage of human APP expressed in HEK293 cells assessed as reduction in amyloid beta42 production
Assay type: cell-based
Quick rule for you: IC50 under 2 nM gets yes, anything else gets no.

| molecule | assigned_label |
| --- | --- |
| O=C(O)CC1C[C@@H]2[C@@H](CC[C@@]3(S(=O)(=O)c4ccc(C(F)(F)F)cc4)c4c(F)ccc(F)c4OC[C@@H]23)NS1(=O)=O (some centres undefined) | no |
| NC(=O)CC1C[C@@H]2[C@@H](CC[C@@]3(S(=O)(=O)c4ccc(C(F)(F)F)cc4)c4c(F)ccc(F)c4OC[C@@H]23)NS1(=O)=O (some centres undefined) | no |
| O=S1(=O)N[C@@H]2CC[C@@]3(S(=O)(=O)c4ccc(C(F)(F)F)cc4)c4c(F)ccc(F)c4OC[C@H]3[C@@H]2CC1CCCO (some centres undefined) | no |
| COCC1C[C@@H]2[C@@H](CC[C@@]3(S(=O)(=O)c4ccc(C(F)(F)F)cc4)c4c(F)ccc(F)c4OC[C@@H]23)NS1(=O)=O (some centres undefined) | no |
| C[C@@H]1C[C@@H]2[C@@H](CC[C@@]3(S(=O)(=O)c4ccc(C(F)(F)F)cc4)c4c(F)ccc(F)c4OC[C@@H]23)NS1(=O)=O | yes |
| O=C(O)CCC1C[C@@H]2[C@@H](CC[C@@]3(S(=O)(=O)c4ccc(C(F)(F)F)cc4)c4c(F)ccc(F)c4OC[C@@H]23)NS1(=O)=O (some centres undefined) | no |

Next item in the queue.
Check if IC50 falls below 2 nM for CCCC1C[C@@H]2[C@@H](CC[C@@]3(S(=O)(=O)c4ccc(C(F)(F)F)cc4)c4c(F)ccc(F)c4OC[C@@H]23)NS1(=O)=O (some centres undefined) . yes

###

procedure_summary: Inhibition of gamma secretase
Listing of recorded pIC50 by entry.
Quick note: pIC50 values are minus log10 of concentrations in mol/L.

| compound | pIC50 |
| --- | --- |
| CCCC1C[C@@H]2[C@@H](CC[C@@]3(S(=O)(=O)c4ccc(C(F)(F)F)cc4)c4c(F)ccc(F)c4OC[C@@H]23)NS1(=O)=O (stereo partly drawn) | 8.26 |

Any idea what pIC50 was measured for C[C@@H]1C[C@@H]2[C@@H](CC[C@@]3(S(=O)(=O)c4ccc(C(F)(F)F)cc4)c4c(F)ccc(F)c4OC[C@@H]23)NS1(=O)=O ? 8.80

Record request: pIC50 value, item O=S1(=O)N[C@@H]2CC[C@@]3(S(=O)(=O)c4ccc(C(F)(F)F)cc4)c4c(F)ccc(F)c4OC[C@H]3[C@@H]2CC1CCN1CCOCC1 (stereo partly drawn) 7.32
